Tested on: release of LH
Assay: Release of LH in rats after sc injection
Format: in vivo
Conditions: 30 min. after sc injection, 1000 ng, LHRH = 100
From the text: The data on the release of LH and FSH in rats by modifications of LHRH with one structural change are in Table II. Exclusive of the salmon-LHRH, only one of the six decapeptides with two structural changes had significant activity.
Non-standard residues stand in square brackets, D forms with d. Residues, ends and D or L forms follow the SMILES beside them. pGlu = O=C1CC[C@@H](C(=O)O)N1
Reported metric: LH % change (%)
Entry rule: numbers only, all in %.

query: Identify LH % change associated with the compound CC(C)C[C@H](NC(=O)CNC(=O)[C@H](Cc1c[nH]cn1)NC(=O)[C@H](CO)NC(=O)[C@H](Cc1c[nH]c2ccccc12)NC(=O)[C@H](Cc1c[nH]cn1)NC(=O)[C@@H]1CCC(=O)N1)C(=O)N[C@@H](Cc1ccc(O)cc1)C(=O)N1CCC[C@H]1C(=O)NCC(N)=O [[His^5 Tyr^8]--LHRH] ([pGlu]HWSHGLYPG-NH2)
result: 4

query: Return reported LH % change. Input compound: CC(C)C[C@H](NC(=O)CNC(=O)[C@H](Cc1ccc(O)cc1)NC(=O)[C@H](CO)NC(=O)[C@H](Cc1c[nH]c2ccccc12)NC(=O)[C@H](Cc1c[nH]cn1)NC(=O)[C@@H]1CCC(=O)N1)C(=O)N[C@@H](CCCNC(=N)N)C(=O)N1CCC[C@H]1C(=O)NCC(N)=O [LHRH, reference compound]
result: 100

query: // Input: NC(=O)CNC(=O)[C@@H]1CCCN1C(=O)[C@H](Cc1ccc(O)cc1)NC(=O)[C@H](Cc1c[nH]c2ccccc12)NC(=O)CNC(=O)[C@H](Cc1c[nH]cn1)NC(=O)[C@H](CO)NC(=O)[C@H](Cc1c[nH]c2ccccc12)NC(=O)[C@H](Cc1c[nH]cn1)NC(=O)[C@@H]1CCC(=O)N1 [[His^5 Trp^7 Tyr^8] (Chicken II), reference compound] ([pGlu]HWSHGWYPG-NH2) . Output its LH % change only.
result: 39

query: Given the compound N=C(N)NCCC[C@H](NC(=O)[C@H](Cc1c[nH]c2ccccc12)NC(=O)CNC(=O)[C@H](Cc1c[nH]cn1)NC(=O)[C@H](CO)NC(=O)[C@H](Cc1c[nH]c2ccccc12)NC(=O)[C@H](Cc1c[nH]cn1)NC(=O)[C@@H]1CCC(=O)N1)C(=O)N1CCC[C@H]1C(=O)NCC(N)=O [[His^5 Trp^7]--LHRH] ([pGlu]HWSHGWRPG-NH2) , write its reported LH % change.
result: 40
